target_or_test_system: UniProt O00408
Sequence (O00408 other isoform, or with tags, fused parts or gaps): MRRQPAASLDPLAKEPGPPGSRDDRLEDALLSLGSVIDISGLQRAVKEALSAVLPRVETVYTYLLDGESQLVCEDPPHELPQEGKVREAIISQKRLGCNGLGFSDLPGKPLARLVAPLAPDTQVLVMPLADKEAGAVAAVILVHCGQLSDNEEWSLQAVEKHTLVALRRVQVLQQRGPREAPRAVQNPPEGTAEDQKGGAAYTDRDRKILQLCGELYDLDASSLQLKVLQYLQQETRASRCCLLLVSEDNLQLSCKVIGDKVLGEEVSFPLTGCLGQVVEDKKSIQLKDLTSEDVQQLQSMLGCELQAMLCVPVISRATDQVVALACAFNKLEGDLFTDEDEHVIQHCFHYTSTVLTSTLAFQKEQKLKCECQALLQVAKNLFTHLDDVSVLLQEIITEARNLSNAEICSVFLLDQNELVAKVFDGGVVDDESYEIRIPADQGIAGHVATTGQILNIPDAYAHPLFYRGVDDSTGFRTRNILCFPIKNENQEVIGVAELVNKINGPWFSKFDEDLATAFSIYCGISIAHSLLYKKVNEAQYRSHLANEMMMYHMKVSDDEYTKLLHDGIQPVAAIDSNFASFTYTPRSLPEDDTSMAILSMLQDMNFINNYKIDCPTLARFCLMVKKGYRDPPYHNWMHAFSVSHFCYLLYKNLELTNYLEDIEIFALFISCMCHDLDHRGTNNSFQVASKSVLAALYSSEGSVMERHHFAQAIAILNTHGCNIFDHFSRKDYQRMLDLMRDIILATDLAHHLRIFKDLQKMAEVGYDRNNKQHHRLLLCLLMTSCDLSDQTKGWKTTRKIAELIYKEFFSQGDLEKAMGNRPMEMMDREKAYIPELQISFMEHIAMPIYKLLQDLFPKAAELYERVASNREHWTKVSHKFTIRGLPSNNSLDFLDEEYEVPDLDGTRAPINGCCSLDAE
assay_summary: PDE2 fluorescence polarization (IMAP FP) inhibition assay, human enzyme
Assay type: biochemical
measurement_parameters: LabB; read-out: hPDE2 Ki (nM) LabB
quantity_kind: Ki (nM)

compound="Cc1nc(-c2nnc([C@H](C)c3ccc(C(F)(F)F)cc3F)s2)cc(=O)[nH]1 (single isomer, unassigned) [Example 5]" measurement=18

[1] Cc1nc(-c2nnc([C@H](C)c3ccc(C(F)(F)F)cc3F)s2)cc(=O)[nH]1 (single isomer, unassigned) [Example 4]
[2] Cc1nc(-c2cc([C@@H](C)c3ccc(C(F)(F)F)cc3F)ncn2)cc(=O)[nH]1 (single isomer, unassigned) [Example 30]
Lookup: Compare reported Ki values for 1 and 2 . Which is lower? # reply format: chosen label
Found: 1

[A] Cc1nc(-c2cc(C(C)c3ccc(C(F)F)c(F)c3)ncn2)cc(=O)[nH]1 (single isomer, unassigned) [Example 38]
[B] Cc1nc(-c2cc(C(C)c3ccc(C(C)(F)F)cc3)ncn2)cc(=O)[nH]1 (single isomer, unassigned) [Example 36]
Lookup: Compare reported Ki values for A and B . Which is lower? # reply format: chosen label
Found: B
